Item-by-item account of pKi
Target: aggregates of Aβ(1-40) (Homo sapiens, UniProt P05067)
Construct: The solid forms of peptides Aβ(1-40) and Aβ(1-42) were purchased
Sequence (P05067 672-711 limits assumed): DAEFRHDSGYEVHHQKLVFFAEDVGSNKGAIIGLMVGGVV
Assay: Inhibition of [125I]3 binding to aggregated Aβ(1-40) peptide in solution
Settings: 25° C.; mean±SEM of three independent experiments; read-out: Inhibition constants (Ki) on ligand binding to aggregates of Aβ(1-40) vs [^125I]3
pKi: −log10 of the molar value.

{"Compound": "CN(C)c1ccc(-c2nc3ccc(Br)cc3s2)cc1", "Readout Qualifier": "=", "pKi": 8.72}
{"Compound": "O=C(O)c1cc(/N=N/c2ccc(-c3ccc(/N=N/c4ccc(O)c(C(=O)O)c4)cc3)cc2)ccc1O [Chrysamine G, reference compound]", "Readout Qualifier": "<", "pKi": 6.00}
{"Compound": "CN1CCN(c2ccc(-c3nc4ccc(I)cc4s3)cc2)CC1", "Readout Qualifier": "=", "pKi": 8.27}
{"Compound": "CN1CCN(c2ccc(-c3nc4ccc(Br)cc4s3)cc2)CC1", "Readout Qualifier": "=", "pKi": 8.80}
{"Compound": "CN(C)c1ccc(-c2nc3ccc(I)cc3s2)cc1", "Readout Qualifier": "=", "pKi": 9.05}
